assay: Individual serum elimination rate and half-life (linear regression per employee); conditions: individual estimate, subject 5, 5 samples
Binarize Elimination rate at 0.3 yearly; below is y, at or above is n.

molecule	label-value
O=S(=O)(O)C(F)(F)C(F)(F)C(F)(F)C(F)(F)C(F)(F)C(F)(F)C(F)(F)C(F)(F)F	n
O=S(=O)(O)C(F)(C(F)(F)F)C(F)(F)C(F)(F)C(F)(F)C(F)(F)C(F)(F)C(F)(F)F (stereo not drawn) [1m-PFOS, perfluoro-1-methylheptanesulfonate]	y
O=C(O)C(F)(F)C(F)(F)C(F)(F)C(F)(F)C(F)(F)C(F)(F)F	n
O=S(=O)(O)C(F)(F)C(F)(F)C(F)(F)C(F)(F)C(F)(F)C(F)(F)C(F)(F)F	y
O=C(O)C(F)(F)C(F)(F)C(F)(F)C(F)(F)C(F)(F)F	y
O=S(=O)(O)C(F)(F)C(F)(F)C(F)(F)C(F)(F)C(F)(F)C(F)(F)F	y
O=S(=O)(O)C(F)(F)C(F)(F)C(F)(F)C(F)(F)F	n

Check if Elimination rate falls below 0.3 yearly for O=S(=O)(O)C(F)(F)C(F)(F)C(F)(F)C(F)(F)C(F)(F)F .
n
